These entries and their values trace back to ChEMBL document CHEMBL1201862.

Item-by-item account of GI50
system: UO-31; assay: NCI tumour cell line growth inhibition, 48 h
Calls of active or inactive are those of the source. Cut-off read from the data, not from the text of the source: active = GI50 up to about 1.1 µM and inactive = higher.

Known results for molecules:
compound structure | experimental system | GI50
Nc1ccc(-c2cssc2=S)cc1 | UO-31 | 35.9 µM (inactive)
COc1cc2nc(Nc3cccc(Br)c3)nc(Nc3cccc(Br)c3)c2cc1OC | UO-31 | 16 µM (inactive)
CCOC(=O)NNC(=O)NCCCCNC(=O)NNC(=O)OCC | UO-31 | > 100 µM (inactive)

Please examine the following record next.
Please give the measured GI50 for this molecule: "CCOc1ccccc1NC(=O)CCC(=O)NN"
> 100 µM (inactive)
